# Tested on: ORYSA (rice)
# Experimental details: Postemergence herbicidal safening in direct seeded rice, visual injury
# Assay context: alone, 280 g ae/ha; after 3 weeks
Property name: Visual Injury (%) ‘Lemont’ ORYSA Obs
Number in %, nothing else.

Response field Visual Injury (%) ‘Lemont’ ORYSA Obs (ORYSA (rice)) for item CCC(C)OC(=O)COc1ccc(Cl)c2cccnc12 (centres unmarked) [Cloquintocet 1-Methylpropyl Ester] : 0

Item: CCCCCC(C)OC(=O)COc1ccc(Cl)c2cccnc12 (centres unmarked) [Cloquintocet-mexyl] | System: ORYSA (rice) | Visual Injury (%) ‘Lemont’ ORYSA Obs: 0

Measured Visual Injury (%) ‘Lemont’ ORYSA Obs for this entry COC(=O)COc1ccc(Cl)c2cccnc12 [Cloquintocet Methyl Ester] on ORYSA (rice): 0

Per the reported ORYSA (rice) data, CC(C)OC(=O)COc1ccc(Cl)c2cccnc12 [Cloquintocet i-Propyl Ester] has Visual Injury (%) ‘Lemont’ ORYSA Obs of 0

Item: CCOC(=O)COc1ccc(Cl)c2cccnc12 [Cloquintocet Ethyl Ester] | System: ORYSA (rice) | Visual Injury (%) ‘Lemont’ ORYSA Obs: 0

Data credit: patent US8916498B2
